// IC50 collected for FAAH (Rattus norvegicus)

[
  {
    "COMPOUND": "CC(C(=O)O)c1ccc2c3cc(Cl)ccc3n(C(=O)c3c[nH]cn3)c2c1 (stereo not drawn) [Compound 15j]",
    "IC50 (µM)": 6
  },
  {
    "COMPOUND": "CC(C(=O)O)c1ccc2c(c1)[nH]c1ccccc12 (stereo not drawn) [Compound 2, 2-(9H-carbazol-2-yl)propanoic acid]",
    "IC50 (µM)": 5
  },
  {
    "COMPOUND": "CCCCCCNC(=O)n1c2ccc(Cl)cc2c2ccc(C(C)C(=O)O)cc21 (stereo not drawn) [Compound 10a]",
    "IC50 (µM)": 3
  }
]

* * *

MEASUREMENT_TARGET: ovine COX-1 (Ovis aries)
Sequence (P05979 25-600): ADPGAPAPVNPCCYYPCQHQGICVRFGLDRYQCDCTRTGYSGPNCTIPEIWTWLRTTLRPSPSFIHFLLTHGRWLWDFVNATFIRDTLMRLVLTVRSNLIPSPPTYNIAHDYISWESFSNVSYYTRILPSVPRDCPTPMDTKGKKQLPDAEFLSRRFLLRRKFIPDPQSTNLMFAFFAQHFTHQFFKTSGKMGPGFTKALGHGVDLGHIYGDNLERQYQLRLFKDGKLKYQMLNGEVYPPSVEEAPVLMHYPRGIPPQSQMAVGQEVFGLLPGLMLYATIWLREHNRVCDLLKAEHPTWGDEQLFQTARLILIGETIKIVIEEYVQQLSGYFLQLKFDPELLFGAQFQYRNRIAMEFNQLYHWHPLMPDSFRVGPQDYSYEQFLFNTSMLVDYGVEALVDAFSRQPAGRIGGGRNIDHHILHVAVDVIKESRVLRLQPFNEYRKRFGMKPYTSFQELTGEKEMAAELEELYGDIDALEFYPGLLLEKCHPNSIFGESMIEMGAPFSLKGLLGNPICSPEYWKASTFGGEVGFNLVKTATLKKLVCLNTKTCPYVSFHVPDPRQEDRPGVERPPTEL
TEST_NAME: COX activity, commercial enzyme immunoassay kit
MEASURED_PARAMETER: COX-1 inhibition, result in words

[
  {
    "COMPOUND": "COc1ccc(C(=O)n2c3ccc(Cl)cc3c3ccc(C(C)C(=O)O)cc32)cc1 (stereo not shown) [Compound 15e]",
    "VALUE_REPORTED": "did not inhibit"
  },
  {
    "COMPOUND": "CC(C(=O)Nc1ccccc1)c1ccc2c(c1)[nH]c1ccc(Cl)cc12 (stereo not shown)",
    "VALUE_REPORTED": "lack of activity"
  },
  {
    "COMPOUND": "COC(=O)C(C)c1ccc2c(c1)[nH]c1ccc(Cl)cc12 (stereo not shown)",
    "VALUE_REPORTED": "lack of activity"
  },
  {
    "COMPOUND": "CC(C(=O)O)c1ccc2c3cc(Cl)ccc3n(C(=O)c3ccccc3Cl)c2c1 (stereo not shown) [Compound 15g]",
    "VALUE_REPORTED": "lost"
  },
  {
    "COMPOUND": "CC(C(=O)O)c1ccc2c3cc(Cl)ccc3n(C(=O)c3ccc(F)cc3)c2c1 (stereo not shown) [Compound 15d]",
    "VALUE_REPORTED": "did not inhibit"
  },
  {
    "COMPOUND": "CC(C(=O)O)c1ccc2c3cc(Cl)ccc3n(C(=O)c3cccc(Cl)c3)c2c1 (stereo not shown) [Compound 15f]",
    "VALUE_REPORTED": "lost"
  },
  {
    "COMPOUND": "CC(C(=O)NCCO)c1ccc2c(c1)[nH]c1ccc(Cl)cc12 (stereo not shown)",
    "VALUE_REPORTED": "lack of activity"
  }
]
